Value source: patent US11427783B2

assay: physchem; settings: n-octanol/water
property measured: logP
Lab note: record the figure alone, no unit after it.

Use the examples below as a reference point.
- COC(C)(C)[C@H]1CC=C(C)CC1: 4.59
- CCCCCC#CC(=O)OC [METHYL 2-OCTYNOATE″, METHYL 2-OCTYNOATE]: 2.9
- CC(C)=CCCC(C)CCOCC=O (racemic): 4.33

Please fill in: logP reported for CC/C=C\CCOC(=O)OC [(3Z)-hex-3-en-1-yl methyl carbonate] = 2.97

So for CCCCC/C(C=O)=C\c1ccccc1 [(E)-2-PENTYL-3-PHENYL-2-PROPENAL] , the logged logP turned out to be 4.3

Looking up CC(C)CC1CC(C)(O)CCO1 (racemic) , I found its logP recorded as 2.22

Data point: C=CCCC(=O)C1=CCCC(C)(C)C1 ; logP = 3.89

----------
assay: Log P (n-octanol/water) of perfuming compounds; details: Table 6, perfuming compounds having a fruity note
Quick list: Log P (n-octanol/water) per entry.
The reply should be a number, written without any unit.

Sample answers from the record:
* CCC(=O)OCc1ccccc1 [BENZYL PROPANOATE] | 2.35
* CC(=O)OC/C=C(/C)CCC=C(C)C | 3.81
* CCCCCC/C(C=O)=C\c1ccccc1 [(2E)-2-benzylideneoctanal] | 4.86

Could you now consider this next compound?
So for C=CCCC(=O)C1=CCCC(C)(C)C1 , the logged Log P (n-octanol/water) turned out to be 3.89

----------
assay: Volatility of perfuming compounds in air; assay type: physicochemical; details: Table 6, perfuming compounds having a fruity note
property measured: Volatility (μg/l air)
Report the figure along with its unit, number first.

# example entries with known answers
* CC(=O)OCCC(C)CCC=C(C)C (stereo not drawn) [3,7-DIMETHYL-6-OCTENYL ACETATE] | 128.72 μg/l air
* CCC(C)C(=O)OCCc1ccccc1 (racemic) [(+−)-2-PHENYLETHYL 2-METHYLBUTANOATE] | 37.73 μg/l air
* CCC(=O)OC/C=C/c1ccccc1 [(E)-3-PHENYL-2-PROPENYL PROPANOATE] | 8.14 μg/l air
* CCOC(=O)/C=C/c1ccccc1 [ETHYL (E)-3-PHENYL-2-PROPENOATE] | 20.55 μg/l air
* COc1ccc(CCC(C)=O)cc1 [4-(4-METHOXYPHENYL)-2-BUTANONE] | 5.58 μg/l air
* CCCCC1CCCC(=O)O1 (stereo not drawn) [5-NONANOLIDE] | 23.87 μg/l air
* CC(=O)CCc1ccc(O)cc1 [4-(4-HYDROXY-1-PHENYL)-2-BUTANONE] | 0.36 μg/l air
* CC(C)(C)C(=O)OCCc1ccccc1 [2-PHENYLETHYL PIVALATE] | 71.44 μg/l air

Note to self: Volatility (μg/l air) recorded for CCCCCCOC(=O)CCCCC [HEXYL HEXANOATE] was 105.52 μg/l air

What the record says about CC(C)C(=O)OCCc1ccccc1 [2-PHENYLETHYL ISOBUTYRATE] : Volatility (μg/l air) is 67.38 μg/l air

Lab note: measured Volatility (μg/l air) of CC1=CC[C@H](C(C)CC2CCCC2=O)CC1 (stereo partly drawn) was 2.05 μg/l air

Form field Volatility (μg/l air), entry CC(C)CC(=O)OCc1ccccc1 [BENZYL 3-METHYLBUTANOATE] : 63.56 μg/l air

Value of measured Volatility (μg/l air) for the entry CCC(=O)OCC(C)(C)OC(C)C1CCCC(C)(C)C1 (single isomer, unassigned; (+)) : 4.39 μg/l air

The value of Volatility (μg/l air) measured for the compound CC1CC(C)(c2ccccc2)OC(C)O1 (stereo not drawn) turned out to be 113.83 μg/l air

Lab note: C/C=C/C(=O)C1=C(C)CCCC1(C)C gave Volatility (μg/l air) of 81.66 μg/l air

# compound CC(=O)/C(C)=C/C1C(C)=CCCC1(C)C (racemic) ; its Volatility (μg/l air) = 36.33 μg/l air

response.value for Cc1occc(=O)c1O [3-HYDROXY-2-METHYL-4(4H)-PYRANONE] (field: Volatility (μg/l air)) = 92.42 μg/l air

----------
assay: Odor threshold of perfuming compounds in air; settings: Table 7, citrus note
property measured: Odor Threshold (μg/l air)
Number only, in μg/l air; omit the unit.

Observe how each entry below is paired with its result.
* CCCCCCCOC(C)=O [heptyl acetate] | 1.32E−01
* CCCOC(=O)[C@H](C)OC(C)(C)CC | 4.98E−01
* CCCCC[C@H]1C(=O)CC[C@@H]1CC(=O)OC (racemic) | 5.77E−04
* CCCCCCCCC=O [nonanal] | 8.14E−03
* C=CC(C)(CCC=C(C)C)OC(C)=O (racemic) | 7.40E−02

In plain terms, CC(=O)OC(C)c1ccccc1 (racemic) [(+−)-1-PHENYLETHYL ACETATE] has a documented Odor Threshold of 4.43E−02

----------
test: Volatility of perfuming compounds in air; format: physicochemical; details: Table 9, perfuming compounds having a gourmand note
property measured: Volatility (μg/l air)
Hi! Could you send only the number? It should be in μg/l air, unit omitted.

Sample records with Volatility (μg/l air):
• CCCCCC1CCC(=O)O1 (racemic) [(+−)-4-NONANOLIDE] = 27.42
• C=C(C)CC(C)OC(=O)C(C)C (racemic) = 9902.98
• CCCC(=O)OC(C)(C)Cc1ccccc1 [1,1-DIMETHYL-2-PHENYLETHYL BUTANOATE] = 34.65
• CCCCCC1CCCC(=O)O1 (racemic) [(+−)-6-pentyltetrahydro-2H-pyran-2-one] = 9.61

Volatility (μg/l air) in this record for C/C=C/c1ccc(OC)cc1 [1-methoxy-4-[(1E)-1-propen-1-yl]benzene] : 184.60

Value of measured Volatility (μg/l air) for the entry CCCCCCCC1CCCC(=O)O1 (racemic) [(+−)-6-heptyltetrahydro-2H-pyran-2-one] : 0.90

# Volatility (μg/l air) (compound: COC(=O)Cc1ccccc1 [METHYL PHENYLACETATE] ) is 555.30

----------
// Log P (n-octanol/water) lookup, one value per entry
assay: Log P (n-octanol/water) of perfuming compounds; conditions: Table 7, citrus note
Reply briefly: the number, and no unit.

• CCCCCCCCOC(C)=O [octyl acetate] = 4.29
• CC(=O)OC(C)c1ccccc1 (racemic) [(+−)-1-PHENYLETHYL ACETATE] = 2.22
• COCC(C)Cc1ccccc1 (racemic) [(+−)-(3-methoxy-2-methylpropyl)benzene] = 3.57
• CC1CCC(=O)O1 (racemic) [(+−)-4-PENTANOLIDE] = −0.12
• O=C(Cc1ccccc1)OCCc1ccccc1 [2-PHENYLETHYL PHENYLACETATE] = 3.59
• C=CC(C)CC(=O)CC(C)C (racemic) = 3.12

Sample CCCCCC(C#N)CCC (racemic) [(+−)-2-propylheptanenitrile] ; Log P (n-octanol/water) observed: 3.67

# compound CCC(C)C(=O)OC(C)C (racemic) [(+−)-ISOPROPYL 2-METHYLBUTANOATE] ; its Log P (n-octanol/water) = 2.85

Lab note: CCCCC/C(C=O)=C\c1ccccc1 [(E)-2-PENTYL-3-PHENYL-2-PROPENAL] gave Log P (n-octanol/water) of 4.30

----------
experiment: Odor threshold of perfuming compounds in air; conditions: Table 4, watery note
Assign criterion met whenever Odor Threshold does not fall below 0.0008 μg/l air; assign criterion not met whenever it does.

Field: example entries. Status: answers known.
• CC(C)c1cccc(C(C)CC=O)c1 (racemic) [(+−)-3-(3-ISOPROPYL-1-PHENYL)BUTANAL] = criterion not met
• CCCCCCCCCCCC#N [DODECANENITRILE] = criterion not met
• CC(C)=CCCC(C)C=O (racemic) = criterion not met
• CCCCCCCCCCCC=O [DODECANAL] = criterion met
• CCCCCC#CC(=O)OC [METHYL 2-OCTYNOATE″, METHYL 2-OCTYNOATE] = criterion met

INPUT: Determine whether measured Odor Threshold meets or exceeds 0.0008 μg/l air for Cc1ccc2c(c1)CC(C)(CO)C2 (racemic)
OUTPUT: criterion not met

INPUT: Item C=CCCCCCCCCC=O [10-undecenal] with Odor Threshold of 0.0008 μg/l air or above?
OUTPUT: criterion met

INPUT: Hello, I need to know if CC(C)CC1CC(C)(O)CCO1 (racemic) has measured Odor Threshold not below 0.0008 μg/l air. Thanks!
OUTPUT: criterion met

----------
# Volatility (μg/l air) per entry
assay: Volatility of perfuming compounds in air; type: physicochemical; settings: Table 10, perfuming compounds having a woody note
Give the figure together with its unit, number first.

- CC1=CCC(CCC(C)C(C)O)C1(C)C (racemic): 5.22 μg/l air

Lab note: measured Volatility (μg/l air) of C=C1C2CCC(C)(OCC)C1CCC2(C)C (racemic) was 135.00 μg/l air

Lookup result for C[C@@H]1CC[C@H]2C(C)(C)[C@H]3C[C@@]12C[C@@H]1OC(C)(C)O[C@@]13C ; measured Volatility (μg/l air): 0.00 μg/l air

Lab book: Volatility (μg/l air) of CC(=O)/C=C/C1=C(C)CCCC1(C)C noted as 35.41 μg/l air

Notebook: CCOC(C)OC1CCCCCCCCCCC1 (racemic) [(+−)-(1-ethoxyethoxy)cyclododecane] , Volatility (μg/l air) read as 5.04 μg/l air
